B1: KRT18 (parent)
chain: RAQYDELARKNREELDKYWSQQIE

Variants of: B1
Experiment: protein stability index of a GFP-peptide fusion (GPS, HEK-293T) (PSI 1-6); higher = more stable;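 note: lentivirally expressed fusions sorted by FACS into six bins by GFP to DsRed ratio, PSI derived from sequencing read proportions per bin multiplied by bin number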
Conditions: c terminus: a fixed tail appended
Listing: protein stability index of selected variants
endpoint label: protein stability index

[[record]]
chain = "RAQYDELARKNREELDKYQSQQIE [W19Q]"
result = 5.13

[[record]]
chain = "RAQTDELARKNREELDKYWSQQIE [Y4T]"
result = 3.91

[[record]]
chain = "YAQYDELARKNREELDKYWSQQIE [R1Y]"
result = 2.29

[[record]]
chain = "RAQYKELARKNREELDKYWSQQIE [D5K]"
result = 2.84

[[record]]
chain = "RAQYDEWARKNREELDKYWSQQIE [L7W]"
result = 2.13

[[record]]
chain = "RAQYHELARKNREELDKYWSQQIE [D5H]"
result = 3.29

[[record]]
chain = "RAQYDELARKNREELYKYWSQQIE [D16Y]"
result = 2.72

[[record]]
chain = "RARYDELARKNREELDKYWSQQIE [Q3R]"
result = 3.27

[[record]]
chain = "RAQYDELARKNREELFKYWSQQIE [D16F]"
result = 2.1

[[record]]
chain = "RAQYDECARKNREELDKYWSQQIE [L7C]"
result = 3.42

[[record]]
chain = "RAQYDELARKNREELDQYWSQQIE [K17Q]"
result = 2.96

[[record]]
chain = "RAQYDELARKLREELDKYWSQQIE [N11L]"
result = 2.66

[[record]]
chain = "RAQYDELWRKNREELDKYWSQQIE [A8W]"
result = 1.31

[[record]]
chain = "RAQYDELARKNREEVDKYWSQQIE [L15V]"
result = 3.41

[[record]]
chain = "SAQYDELARKNREELDKYWSQQIE [R1S]"
result = 3.06

[[record]]
chain = "RAQYDENARKNREELDKYWSQQIE [L7N]"
result = 4.22

[[record]]
chain = "RDQYDELARKNREELDKYWSQQIE [A2D]"
result = 3.18

[[record]]
chain = "RAQYDILARKNREELDKYWSQQIE [E6I]"
result = 3.05

[[record]]
chain = "RAQYDVLARKNREELDKYWSQQIE [E6V]"
result = 3.32

[[record]]
chain = "RAQYDELARKNREELDKFWSQQIE [Y18F]"
result = 3.5

[[record]]
chain = "RAQYDELARKNREELDKYWSQPIE [Q22P]"
result = 3.83

[[record]]
chain = "EAQYDELARKNREELDKYWSQQIE [R1E]"
result = 3.06

[[record]]
chain = "RAQYDELARKNREELDKYWKQQIE [S20K]"
result = 1.22

[[record]]
chain = "RAQYDELARKNREELDKYWSQQQE [I23Q]"
result = 4.43

[[record]]
chain = "RAQYDELARKNREELDGYWSQQIE [K17G]"
result = 3.57

[[record]]
chain = "RAQYDELARKNREELDRYWSQQIE [K17R]"
result = 2.56

[[record]]
chain = "RAQYDELARKNREELDKWWSQQIE [Y18W]"
result = 3.62

[[record]]
chain = "RAQYDELARKNREECDKYWSQQIE [L15C]"
result = 3.18

[[record]]
chain = "RAQYDELARKNREELDKLWSQQIE [Y18L]"
result = 4.6

[[record]]
chain = "RVQYDELARKNREELDKYWSQQIE [A2V]"
result = 3.11

[[record]]
chain = "RAQYDELARKNREETDKYWSQQIE [L15T]"
result = 4.1

[[record]]
chain = "RAQYDELARKNREELDKYWSRQIE [Q21R]"
result = 3.81

[[record]]
chain = "RPQYDELARKNREELDKYWSQQIE [A2P]"
result = 3.13

[[record]]
chain = "RAQYDFLARKNREELDKYWSQQIE [E6F]"
result = 3.15

[[record]]
chain = "RAQYDELARHNREELDKYWSQQIE [K10H]"
result = 4.16

[[record]]
chain = "RAQYDELARKNREELDKYWWQQIE [S20W]"
result = 2.6

[[record]]
chain = "RAQYDELIRKNREELDKYWSQQIE [A8I]"
result = 3.17

[[record]]
chain = "RAQYDELARKNREELDKYWSGQIE [Q21G]"
result = 3.58

[[record]]
chain = "RAQYDELARKNREELDKYWSPQIE [Q21P]"
result = 4.25

[[record]]
chain = "RAQYDEGARKNREELDKYWSQQIE [L7G]"
result = 3.19

[[record]]
chain = "RAQYDELARKNREELDKYWSQAIE [Q22A]"
result = 3.44

[[record]]
chain = "RAQYDELARKNREELDKYWQQQIE [S20Q]"
result = 2.17

[[record]]
chain = "RAQYDELARKNREELDKYWSQEIE [Q22E]"
result = 3.7

[[record]]
chain = "RAQYDELARKNREELDKYWSQQIG [E24G]"
result = 3.77

[[record]]
chain = "RAQYDELARKNREEYDKYWSQQIE [L15Y]"
result = 3.3

[[record]]
chain = "RAQYDELAPKNREELDKYWSQQIE [R9P]"
result = 4.28

[[record]]
chain = "RAQYDELARVNREELDKYWSQQIE [K10V]"
result = 3.15

[[record]]
chain = "RAQYDYLARKNREELDKYWSQQIE [E6Y]"
result = 3.25

[[record]]
chain = "RAQYDEKARKNREELDKYWSQQIE [L7K]"
result = 3.93

[[record]]
chain = "RAQYDELARKNREELDKYWSLQIE [Q21L]"
result = 2.74

[[record]]
chain = "RSQYDELARKNREELDKYWSQQIE [A2S]"
result = 3.25

[[record]]
chain = "RAQYDELKRKNREELDKYWSQQIE [A8K]"
result = 3.85

[[record]]
chain = "RAQYDELARKNPEELDKYWSQQIE [R12P]"
result = 4.08

[[record]]
chain = "RAQYDELARRNREELDKYWSQQIE [K10R]"
result = 3.03

[[record]]
chain = "RAQYDELARKNREELLKYWSQQIE [D16L]"
result = 3.12

[[record]]
chain = "RAQYDELARLNREELDKYWSQQIE [K10L]"
result = 3.73

[[record]]
chain = "RAQYDELNRKNREELDKYWSQQIE [A8N]"
result = 3.54

[[record]]
chain = "RAQYLELARKNREELDKYWSQQIE [D5L]"
result = 2.33

[[record]]
chain = "RAQYDERARKNREELDKYWSQQIE [L7R]"
result = 3.89

[[record]]
chain = "RAQYDELAMKNREELDKYWSQQIE [R9M]"
result = 3.17

[[record]]
chain = "RAQYDMLARKNREELDKYWSQQIE [E6M]"
result = 2.99

[[record]]
chain = "RAQYDELARKNREELWKYWSQQIE [D16W]"
result = 2.21

[[record]]
chain = "RAQYDELARQNREELDKYWSQQIE [K10Q]"
result = 3.14

[[record]]
chain = "LAQYDELARKNREELDKYWSQQIE [R1L]"
result = 2.79

[[record]]
chain = "RAQYDELARKNCEELDKYWSQQIE [R12C]"
result = 3.98

[[record]]
chain = "RAQYDELARKNREGLDKYWSQQIE [E14G]"
result = 3.83

[[record]]
chain = "RAQYDELARKNREELDKYWEQQIE [S20E]"
result = 4.23

[[record]]
chain = "RWQYDELARKNREELDKYWSQQIE [A2W]"
result = 3.13

[[record]]
chain = "RAQYDELARKNREELDKYCSQQIE [W19C]"
result = 4.91

[[record]]
chain = "RAQYDELARKNREELDKYWVQQIE [S20V]"
result = 3.18

[[record]]
chain = "RAQYDEDARKNREELDKYWSQQIE [L7D]"
result = 3

[[record]]
chain = "RAQYDELARKNREELDKIWSQQIE [Y18I]"
result = 3.97

[[record]]
chain = "RAQYDELARKNREELDYYWSQQIE [K17Y]"
result = 3.42

[[record]]
chain = "RAMYDELARKNREELDKYWSQQIE [Q3M]"
result = 2.52

[[record]]
chain = "RAKYDELARKNREELDKYWSQQIE [Q3K]"
result = 3.19

[[record]]
chain = "RAQYDELAYKNREELDKYWSQQIE [R9Y]"
result = 3.64

[[record]]
chain = "RAQYDELARKNREELDMYWSQQIE [K17M]"
result = 3.51

[[record]]
chain = "RAQYDELAFKNREELDKYWSQQIE [R9F]"
result = 3.88

[[record]]
chain = "RAQYDELARKNREERDKYWSQQIE [L15R]"
result = 4.22

[[record]]
chain = "RYQYDELARKNREELDKYWSQQIE [A2Y]"
result = 2.72

[[record]]
chain = "RAQYDELARCNREELDKYWSQQIE [K10C]"
result = 3.02

[[record]]
chain = "HAQYDELARKNREELDKYWSQQIE [R1H]"
result = 2.97

[[record]]
chain = "RAQYDELARKYREELDKYWSQQIE [N11Y]"
result = 2.27

[[record]]
chain = "RAQYDELARKNREELCKYWSQQIE [D16C]"
result = 2.4

[[record]]
chain = "RAQYDELARKNTEELDKYWSQQIE [R12T]"
result = 4.19

[[record]]
chain = "RALYDELARKNREELDKYWSQQIE [Q3L]"
result = 2.55

[[record]]
chain = "RAQYDELARKNRDELDKYWSQQIE [E13D]"
result = 3.54

[[record]]
chain = "RAQYDELARKNREELDKYWSQQWE [I23W]"
result = 3.97

[[record]]
chain = "RATYDELARKNREELDKYWSQQIE [Q3T]"
result = 2.89

[[record]]
chain = "RAQYDELLRKNREELDKYWSQQIE [A8L]"
result = 2.34

[[record]]
chain = "RAQYDEAARKNREELDKYWSQQIE [L7A]"
result = 3.7

